Origin of measurements: patent US10760052B2

# Experimental target: mu opiate receptor (MOR) (Rattus norvegicus)
# Construct: from tissue; host or cells: striatum (membrane preparation)
# Format: biochemical
# Measurement parameters: [35S]GTPγS binding to Gαo in striatal membranes; compound 1 μM
Concentration of FLNA-Binding Compound as Agonist 1 μM reference
Write the number in % without appending the unit.

Example entries and their recorded answers appear below.
CC1CCC(C(C)C)C(OCC(O)CN2CCCCCCC2)C1 (centres unmarked)
174.9
COc1ccc(NC(=O)N2CCC3(CC2)OCCN3S(=O)(=O)c2ccc(OC)cc2)cc1
244.4
O=S(=O)(c1ccc(Oc2ccccc2)cc1)N1CCC2(CC1)OCCN2S(=O)(=O)c1ccc(Oc2ccccc2)cc1 [Compound C0149M]
406.7
COc1ccccc1CC(O)CC1c2c(cc3c(c2OC)OCO3)CCN1C (centres unmarked)
276.1
CC1CCC(C)C(OCC(O)CN2CC(C)OC(C)C2)C1 (centres unmarked)
216.0

Note to self: Concentration of FLNA-Binding Compound as Agonist 1 μM of COc1ccc(OCC(O)Cn2ccc3ccccc32)cc1 (centres unmarked) with mu opiate receptor (MOR) (Rattus norvegicus) was 334.7

Hey, mu opiate receptor (MOR) (Rattus norvegicus) data for CC1CCC(C(C)C)C(OCC(O)CN2CCC2)C1 (centres unmarked) : Concentration of FLNA-Binding Compound as Agonist 1 μM came out at 150.1

----------
# Experimental target: FLNA (Homo sapiens, UniProt P21333)
# Construct: validate the use of that 5-mer peptide as a surrogate for the complete molecule in the assays carried out herein; host or cells: A7 cells
# Sequence (P21333 whole entry): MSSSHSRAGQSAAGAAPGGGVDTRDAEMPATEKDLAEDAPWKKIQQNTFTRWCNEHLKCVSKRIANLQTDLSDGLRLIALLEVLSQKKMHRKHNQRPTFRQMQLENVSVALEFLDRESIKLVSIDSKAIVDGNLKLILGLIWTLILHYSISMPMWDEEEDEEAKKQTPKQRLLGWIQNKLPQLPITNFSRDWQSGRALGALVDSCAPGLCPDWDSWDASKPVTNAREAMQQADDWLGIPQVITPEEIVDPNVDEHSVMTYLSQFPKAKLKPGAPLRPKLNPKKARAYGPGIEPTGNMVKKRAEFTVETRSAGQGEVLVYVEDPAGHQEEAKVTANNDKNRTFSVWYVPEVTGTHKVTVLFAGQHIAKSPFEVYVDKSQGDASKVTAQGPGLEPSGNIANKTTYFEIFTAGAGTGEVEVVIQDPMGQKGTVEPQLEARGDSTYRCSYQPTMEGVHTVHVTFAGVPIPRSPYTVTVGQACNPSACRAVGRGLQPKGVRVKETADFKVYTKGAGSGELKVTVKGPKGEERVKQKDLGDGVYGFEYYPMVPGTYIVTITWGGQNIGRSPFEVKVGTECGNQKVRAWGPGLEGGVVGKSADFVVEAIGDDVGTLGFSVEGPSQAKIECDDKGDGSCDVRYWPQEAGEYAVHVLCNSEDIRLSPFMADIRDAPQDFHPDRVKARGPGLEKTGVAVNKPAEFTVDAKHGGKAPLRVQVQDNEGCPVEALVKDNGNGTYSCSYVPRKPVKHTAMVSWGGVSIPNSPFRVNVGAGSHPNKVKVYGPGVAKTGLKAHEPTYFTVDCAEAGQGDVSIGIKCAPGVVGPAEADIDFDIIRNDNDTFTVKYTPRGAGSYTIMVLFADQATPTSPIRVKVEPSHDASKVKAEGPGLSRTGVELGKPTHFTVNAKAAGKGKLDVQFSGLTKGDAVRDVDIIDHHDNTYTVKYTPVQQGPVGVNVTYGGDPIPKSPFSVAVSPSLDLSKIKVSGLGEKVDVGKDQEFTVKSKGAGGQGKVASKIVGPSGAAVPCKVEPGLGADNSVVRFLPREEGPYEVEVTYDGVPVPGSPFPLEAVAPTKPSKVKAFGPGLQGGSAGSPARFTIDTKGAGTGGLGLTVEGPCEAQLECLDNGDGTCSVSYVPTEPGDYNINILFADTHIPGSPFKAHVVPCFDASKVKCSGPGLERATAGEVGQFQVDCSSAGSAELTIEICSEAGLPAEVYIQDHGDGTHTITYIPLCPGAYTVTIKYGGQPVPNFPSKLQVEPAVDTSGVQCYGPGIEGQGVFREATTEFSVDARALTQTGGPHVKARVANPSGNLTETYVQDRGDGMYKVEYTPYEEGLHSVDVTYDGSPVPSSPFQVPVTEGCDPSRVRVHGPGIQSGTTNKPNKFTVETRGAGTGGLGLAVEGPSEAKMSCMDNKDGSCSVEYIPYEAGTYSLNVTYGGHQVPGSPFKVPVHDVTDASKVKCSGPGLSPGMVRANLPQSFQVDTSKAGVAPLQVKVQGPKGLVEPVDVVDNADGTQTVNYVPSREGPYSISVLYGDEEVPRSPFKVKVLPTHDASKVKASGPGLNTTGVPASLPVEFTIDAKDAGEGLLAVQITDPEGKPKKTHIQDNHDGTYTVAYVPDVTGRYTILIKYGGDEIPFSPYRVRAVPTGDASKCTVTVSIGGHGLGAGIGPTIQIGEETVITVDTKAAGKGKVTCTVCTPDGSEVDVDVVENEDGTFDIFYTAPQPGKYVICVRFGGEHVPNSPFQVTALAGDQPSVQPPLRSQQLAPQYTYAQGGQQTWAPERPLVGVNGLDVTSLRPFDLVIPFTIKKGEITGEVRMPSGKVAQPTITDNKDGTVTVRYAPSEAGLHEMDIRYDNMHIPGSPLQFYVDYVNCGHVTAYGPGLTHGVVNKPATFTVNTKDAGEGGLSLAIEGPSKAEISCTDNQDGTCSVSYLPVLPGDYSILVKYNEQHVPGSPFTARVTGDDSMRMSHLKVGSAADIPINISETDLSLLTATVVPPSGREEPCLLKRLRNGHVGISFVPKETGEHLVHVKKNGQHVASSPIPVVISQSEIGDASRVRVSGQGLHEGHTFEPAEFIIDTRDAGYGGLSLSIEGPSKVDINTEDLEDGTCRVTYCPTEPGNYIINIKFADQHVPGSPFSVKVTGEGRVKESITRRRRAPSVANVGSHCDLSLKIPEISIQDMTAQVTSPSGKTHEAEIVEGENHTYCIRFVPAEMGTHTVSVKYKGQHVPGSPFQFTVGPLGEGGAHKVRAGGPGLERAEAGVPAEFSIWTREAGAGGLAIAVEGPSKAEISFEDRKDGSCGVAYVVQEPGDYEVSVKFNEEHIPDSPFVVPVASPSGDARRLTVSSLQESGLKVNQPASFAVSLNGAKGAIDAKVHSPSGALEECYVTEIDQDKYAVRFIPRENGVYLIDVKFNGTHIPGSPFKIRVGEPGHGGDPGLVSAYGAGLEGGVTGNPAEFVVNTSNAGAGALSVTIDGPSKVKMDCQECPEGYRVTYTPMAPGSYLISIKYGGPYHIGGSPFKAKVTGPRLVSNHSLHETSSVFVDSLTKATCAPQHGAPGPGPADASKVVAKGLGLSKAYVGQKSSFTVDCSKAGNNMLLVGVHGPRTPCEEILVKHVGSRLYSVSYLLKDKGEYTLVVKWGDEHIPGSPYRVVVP
# Method notes: [3H]NLX competition binding to FLNA in A7 cell membranes
# Measurement parameters: 0.5 nM [3H]NLX, N=4, read-out: IC50-L, inhibition of [3H]NLX binding
Observation type: IC50 (nM)
Dear colleague, please return just the value in nM, with no unit written.

The compound identified as CN1CCC2(CC1)NCC(=O)N2Cc1ccccc1 registered its IC50 at 0.226

----------
# Experimental target: mu opiate receptor (MOR) (Rattus norvegicus, UniProt P33535)
# Construct: from tissue; host or cells: striatum (membrane preparation)
# Sequence (P33535 whole entry): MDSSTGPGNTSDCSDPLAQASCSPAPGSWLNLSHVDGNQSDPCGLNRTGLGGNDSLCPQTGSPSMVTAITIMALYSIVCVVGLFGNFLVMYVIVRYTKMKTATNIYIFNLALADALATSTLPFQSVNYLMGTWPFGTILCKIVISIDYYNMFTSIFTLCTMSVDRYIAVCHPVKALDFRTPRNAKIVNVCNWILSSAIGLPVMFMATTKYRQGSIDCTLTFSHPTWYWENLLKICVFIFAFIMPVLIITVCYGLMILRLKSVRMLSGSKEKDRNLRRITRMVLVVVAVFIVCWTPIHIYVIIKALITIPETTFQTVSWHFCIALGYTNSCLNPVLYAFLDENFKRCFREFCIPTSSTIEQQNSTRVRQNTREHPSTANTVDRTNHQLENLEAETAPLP
# Type: biochemical
# Measurement parameters: [35S]GTPγS binding to Gαo in striatal membranes; compound 0.1 μM
Label Criterion met when Concentration of FLNA-Binding Compound as Agonist 0.1 μM < 200%; otherwise Criterion not met.

COc1ccccc1CC(O)CC1c2c(cc3c(c2OC)OCO3)CC[N+]1(C)C (stereo not shown)
Criterion not met
COc1cc(OC)cc(C(=O)CC2c3c(cc4c(c3OC)OCO4)CC[N+]2(C)C)c1 (stereo not shown)
Criterion met
O=C(OCc1ccccc1)c1ccc(S(=O)(=O)N2CCC3(CC2)OCCN3S(=O)(=O)c2ccc(C(=O)OCc3ccccc3)cc2)cc1
Criterion met
O=S(=O)(c1ccc(Oc2ccccc2)cc1)N1CCC2(CC1)OCCN2S(=O)(=O)c1ccc(Oc2ccccc2)cc1 [Compound C0149M]
Criterion not met

Problem: Hello, I'm reviewing records and need to know if Concentration of FLNA-Binding Compound as Agonist 0.1 μM of CC1CCC(C(C)C)C(OCC(O)CN2CCCCC2)C1 (stereo not shown) is below 200%. Could you check?
Solution: Criterion met

Problem: Dear colleague, could you confirm whether Concentration of FLNA-Binding Compound as Agonist 0.1 μM of CC(=O)c1ccc(C(=O)N2CCC3(CC2)OCCN3C(=O)c2ccc(C(C)=O)cc2)cc1 falls below 200%? Thanks.
Solution: Criterion met

Problem: Strictly below 200% in Concentration of FLNA-Binding Compound as Agonist 0.1 μM? O=S(=O)(c1ccc(Br)cc1)N1CCC2(CC1)OCCN2S(=O)(=O)c1ccc(Br)cc1
Solution: Criterion not met
